# targetOfAssay: Glucocorticoid receptor (Homo sapiens) (UniProt P04150)
# Sequence (P04150 whole entry): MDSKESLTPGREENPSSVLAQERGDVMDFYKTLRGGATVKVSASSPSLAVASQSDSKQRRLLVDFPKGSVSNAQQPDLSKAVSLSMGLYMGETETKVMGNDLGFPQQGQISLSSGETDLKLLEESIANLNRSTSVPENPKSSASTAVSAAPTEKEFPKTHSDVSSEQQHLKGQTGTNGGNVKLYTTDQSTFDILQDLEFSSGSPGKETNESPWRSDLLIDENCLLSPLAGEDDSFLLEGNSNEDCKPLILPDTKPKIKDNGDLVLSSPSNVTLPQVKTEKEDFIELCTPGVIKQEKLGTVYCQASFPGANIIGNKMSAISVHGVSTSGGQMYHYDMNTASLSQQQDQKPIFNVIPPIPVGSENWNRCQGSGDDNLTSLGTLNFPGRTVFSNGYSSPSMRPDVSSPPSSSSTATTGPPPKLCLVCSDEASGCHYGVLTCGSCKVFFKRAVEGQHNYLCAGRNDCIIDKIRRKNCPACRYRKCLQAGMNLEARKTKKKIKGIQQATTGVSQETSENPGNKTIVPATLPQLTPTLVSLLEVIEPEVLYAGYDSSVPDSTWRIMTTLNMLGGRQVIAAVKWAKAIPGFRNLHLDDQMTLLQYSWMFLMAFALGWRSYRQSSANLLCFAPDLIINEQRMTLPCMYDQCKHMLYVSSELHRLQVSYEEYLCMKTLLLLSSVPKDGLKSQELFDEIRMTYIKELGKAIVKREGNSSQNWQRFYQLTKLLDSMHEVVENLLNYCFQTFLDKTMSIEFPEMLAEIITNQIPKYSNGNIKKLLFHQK
# testMethodNotes: Relative binding affinity against glucocorticoid receptor
Using Relative binding affinity as the sorting value, the categories are LOW: < 1; MID: ≥ 1 and < 6; HIGH: ≥ 6

Task: Note: place this molecule into its band. Item: C[C@]1(O)CC[C@H]2[C@@H]3CCC4=CC(=O)CCC4=C3C=C[C@@]21C (stereo in doubt; 12)
Result: HIGH

Task: Note: place this molecule into its band. Item: CC12CCC3C4CCC(=O)C=C4CCC3C1CC[C@@]21CCS(=O)O1 (stereo not given in full)
Result: LOW

Task: Note: place this molecule into its band. Item: C[C@]1(O)CC[C@H]2[C@@H]3CCC4=CC(=O)CC[C@@H]4[C@H]3CC[C@@]21C
Result: MID

Task: Note: place this molecule into its band. Item: C[C@]12CCC3=C4CCC(=O)C=C4CC[C@H]3[C@@H]1CC[C@@H]2O
Result: MID

Task: Note: place this molecule into its band. Item: CC1(C)CC2C(=C3CCC(=O)C=C31)C=CC1(C)C2CC[C@]1(C)O (stereo not given in full)
Result: MID

Task: Note: place this molecule into its band. Item: CC12CCC3=C4CCC(=O)C=C4CCC3C1CC[C@@]21CCC(=O)O1 (stereo not given in full)
Result: HIGH

Task: Note: place this molecule into its band. Item: CC(=O)[C@H]1CC[C@H]2[C@@H]3CCC4=CC(=O)CC[C@@H]4[C@H]3CC[C@]12C
Result: LOW

Task: Note: place this molecule into its band. Item: CC12C=CC3=C4CCC(=O)C=C4CCC3C1CCC2=O (stereo not given)
Result: LOW

Task: Note: place this molecule into its band. Item: C#C[C@]1(O)CCC2C3CCC4=CC(=O)CCC4=C3CCC21C (stereo not given in full)
Result: MID

Task: Note: place this molecule into its band. Item: CCC12CCC3C4CCC(=O)C=C4CCC3C1CC[C@@H]2O (stereo not given in full)
Result: MID
